Experiment: Average in vitro cytotoxicity was calculated from all cell lines tested
Format: functional
The following compounds are shown together with reported LC50 values.
attribute_measured: LC50 (µM)

- compound: "COc1cc([C@@H]2c3cc4c(cc3[C@@H](Nc3ccc(NC(=O)c5cc(NC(=O)c6cc([N+](=O)[O-])cn6C)cn5C)cc3)[C@H]3COC(=O)[C@H]23)OCO4)cc(OC)c1O"
  unit_abbreviation: "µM"
  value: 81.3
- compound: "CNCCN[C@@H]1c2cc3c(cc2[C@@H](c2cc(OC)c(O)c(OC)c2)[C@H]2C(=O)OC[C@@H]21)OCO3"
  unit_abbreviation: "µM"
  value: 38.9
- compound: "COc1cc([C@@H]2c3cc4c(cc3[C@@H](NC(=O)NO)[C@H]3COC(=O)[C@H]23)OCO4)cc(OC)c1O"
  unit_abbreviation: "µM"
  value: 100

* * *

System: MCF7
Test: Tested for the in vitro cytotoxicity against MCF-7 breast cancer cell line
Assay type: functional, Homo sapiens
Details: Homo sapiens, MCF7
Reported GI50 values follow for various compounds
attribute_measured: GI50 (nM)

- compound: "COc1cc([C@@H]2c3cc4c(cc3[C@@H](Nc3ccc(NC(=O)c5cc([N+](=O)[O-])cn5C)cc3)[C@H]3COC(=O)[C@H]23)OCO4)cc(OC)c1O"
  attribute_measured: "GI50"
  censoring_qualifier: "<"
  value: 10
- compound: "CNCCN[C@@H]1c2cc3c(cc2[C@@H](c2cc(OC)c(O)c(OC)c2)[C@H]2C(=O)OC[C@@H]21)OCO3"
  attribute_measured: "GI50"
  censoring_qualifier: "="
  value: 14.4
- compound: "COc1cc([C@@H]2c3cc4c(cc3[C@@H](O[C@@H]3O[C@@H]5CO[C@@H](C)O[C@H]5[C@H](O)[C@H]3O)[C@H]3COC(=O)[C@H]23)OCO4)cc(OC)c1O [ETOPOSIDE]"
  attribute_measured: "GI50"
  censoring_qualifier: "="
  value: 4370
- compound: "COc1cc([C@@H]2c3cc4c(cc3[C@@H](Nc3ccc(NC(=O)c5cc(NC(=O)c6cc([N+](=O)[O-])cn6C)cn5C)cc3)[C@H]3COC(=O)[C@H]23)OCO4)cc(OC)c1O"
  attribute_measured: "GI50"
  censoring_qualifier: "="
  value: 47.9
- compound: "COc1cc([C@@H]2c3cc4c(cc3[C@@H](NC(=O)NO)[C@H]3COC(=O)[C@H]23)OCO4)cc(OC)c1O"
  attribute_measured: "GI50"
  censoring_qualifier: "="
  value: 7760
